- Test system: Staphylococcus aureus
- EXPERIMENT_SUMMARY: Antibacterial activity against erythromycin-susceptible Staphylococcus aureus ATCC 25923 after 24 h by NCCLS broth microdilution method
- Assay type: functional
- MEASUREMENT_CONTEXT: ATCC 25923, 24 h
MEASURE_NAME: MIC
Please answer using a numeric value trailed by its unit.

Req: Let me know recorded MIC for CC[C@H]1OC(=O)[C@H](C)C(=O)[C@H](C)[C@@H](O[C@@H]2O[C@H](C)C[C@H](N(C)C)[C@H]2O)[C@](C)(OC)C[C@@H](C)C(=O)[C@H](C)[C@@H](OC(=O)NCCNC(=O)c2ccc(Cl)cc2)[C@]1(C)O , thanks.
Resp: 16 µg/mL

Req: Let me know recorded MIC for CC[C@H]1OC(=O)[C@H](C)C(=O)[C@H](C)[C@@H](O[C@@H]2O[C@H](C)C[C@H](N(C)C)[C@H]2O)[C@](C)(OC)C[C@@H](C)C(=O)[C@H](C)[C@@H](OC(=O)NCCNC(=O)c2ccc([N+](=O)[O-])cc2)[C@]1(C)O , thanks.
Resp: 16 µg/mL

Req: Let me know recorded MIC for CC[C@H]1OC(=O)[C@H](C)C(=O)[C@H](C)[C@@H](O[C@@H]2O[C@H](C)C[C@H](N(C)C)[C@H]2O)[C@](C)(OC)C[C@@H](C)C(=O)[C@H](C)[C@@H](OC(=O)NCCNC(=O)c2ccc(Br)cc2)[C@]1(C)O , thanks.
Resp: 8 µg/mL

Req: Let me know recorded MIC for CC[C@H]1OC(=O)[C@H](C)C(=O)[C@H](C)[C@@H](O[C@@H]2O[C@H](C)C[C@H](N(C)C)[C@H]2O)[C@](C)(OC)C[C@@H](C)C(=O)[C@H](C)[C@@H](OC(=O)NCCNC(=O)c2cc([N+](=O)[O-])cc([N+](=O)[O-])c2)[C@]1(C)O , thanks.
Resp: 8 µg/mL
